Where these numbers come from: PubChem BioAssay AID1963982

Test system: 313798-341-R-J2-PDC spheroids, viability
EXPERIMENT: Anticancer human tumor 313798-341-R-J2-PDC patient-derived cervical squamous cell carcinoma cell line growth inhibition [PI3K]
MEASUREMENT PARAMETERS: second compound 3.16 µM; first compound 10 µM; stronger effect = lower value; spheroids with HUVEC and MSC
Property: viability, T/C; scope: individual molecules
Field format: number, assumed %, no unit text.

Use the examples below as a reference point.
MOLECULE | EXPERIMENTAL RESULT
Cn1ncc(Cl)c1-c1cc(C(=O)NC(CN)Cc2cccc(F)c2)sc1Cl (stereo not given) + CC(Nc1ncnc2nc[nH]c12)c1cc2cccc(Cl)c2c(=O)n1-c1ccccc1 | 30.8
C=CC(=O)N1CCN(c2nc(=O)n(-c3c(C)ccnc3C(C)C)c3nc(-c4c(O)cccc4F)c(F)cc23)C(C)C1 (stereo not given) + CC(Nc1ncnc2nc[nH]c12)c1cc2cccc(Cl)c2c(=O)n1-c1ccccc1 | 91.9
C[C@@H](NC(=O)c1ncnc(N)c1Cl)c1ncc(C(=O)Nc2cc(C(F)(F)F)c(Cl)cn2)s1 + Cc1nc(NC(=O)N2CCCC2C(N)=O)sc1-c1ccnc(C(C)(C)C(F)(F)F)c1 | 58.4
CC1(C)CCC(CN2CCN(c3ccc(C(=O)NS(=O)(=O)c4ccc(NCC5CCOCC5)c([N+](=O)[O-])c4)c(Oc4cnc5[nH]ccc5c4)c3)CC2)=C(c2ccc(Cl)cc2)C1 + Cc1nc(NC(=O)N2CCCC2C(N)=O)sc1-c1ccnc(C(C)(C)C(F)(F)F)c1 | 18.3
CC1(C)CCC(Nc2ncc(C(F)(F)F)c(-c3c[nH]c4c(P(C)(C)=O)c(C#N)ccc34)n2)CN1 (stereo not given) + CC(Nc1ncnc2nc[nH]c12)c1cc2cccc(Cl)c2c(=O)n1-c1ccccc1 | 50.3
C#Cc1c(F)ccc2cc(O)cc(-c3ncc4c(N5CC6CCC(C5)N6)nc(OCC56CCCN5CC(F)C6)nc4c3F)c12 (stereo not given) + CC(Nc1ncnc2nc[nH]c12)c1cc2cccc(Cl)c2c(=O)n1-c1ccccc1 | 99.9
CC(C)NCC(C(=O)N1CCN(c2ncnc3c2C(C)CC3O)CC1)c1ccc(Cl)cc1 (stereo not given) + Cc1nc(NC(=O)N2CCCC2C(N)=O)sc1-c1ccnc(C(C)(C)C(F)(F)F)c1 | 30.2
Cn1nccc1Nc1nccc(-c2ccn(C(CO)c3ccc(Cl)c(F)c3)c(=O)c2)n1 (stereo not given) + Cc1nc(NC(=O)N2CCCC2C(N)=O)sc1-c1ccnc(C(C)(C)C(F)(F)F)c1 | 45.4
CNC(=O)c1ccc(N2C(=S)N(c3ccc(C#N)c(C(F)(F)F)c3)C(=O)C2(C)C)cc1F + Cc1nc(NC(=O)N2CCCC2C(N)=O)sc1-c1ccnc(C(C)(C)C(F)(F)F)c1 | 54.5

API: the following record is the query input.
Consider CC(C)NCC(C(=O)N1CCN(c2ncnc3c2C(C)CC3O)CC1)c1ccc(Cl)cc1 (stereo not given) + CC(Nc1ncnc2nc[nH]c12)c1cc2cccc(Cl)c2c(=O)n1-c1ccccc1 . Its measured viability, T/C is 26.7

----------
Tested on: 313798-341-R-J2-PDC spheroids, viability
EXPERIMENT: Anticancer human tumor 313798-341-R-J2-PDC cell line growth inhibition [PI3K];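 note: spheroids exposed to compounds for seven days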
MEASUREMENT PARAMETERS: curve of first compound; second compound 1 µM; spheroids with HUVEC and MSC
pIC50: −log10 of the molar value.
READOUT LABEL: pIC50

Below, each entry is followed by its recorded pIC50 result.
COMPOUND | pIC50
CC(Cn1ccc(-c2ccc(C#N)c(Cl)c2)n1)NC(=O)c1cc(C(C)O)[nH]n1 (stereo unspecified) + Cc1nc(NC(=O)N2CCCC2C(N)=O)sc1-c1ccnc(C(C)(C)C(F)(F)F)c1 | < 5.00
C#Cc1c(F)ccc2cc(O)cc(-c3ncc4c(N5CC6CCC(C5)N6)nc(OCC56CCCN5CC(F)C6)nc4c3F)c12 (stereo unspecified) + COc1c(OCCCN2CCOCC2)ccc2c3n(c(=NC(=O)c4cnc(N)nc4)nc12)CCN3 | > 7.50

Noted pIC50 for C[C@@H](NC(=O)c1ncnc(N)c1Cl)c1ncc(C(=O)Nc2cc(C(F)(F)F)c(Cl)cn2)s1 + CC(Nc1ncnc2nc[nH]c12)c1cc2cccc(Cl)c2c(=O)n1-c1ccccc1 , tested on 313798-341-R-J2-PDC spheroids, viability: < 5.00

Item CC(=O)c1c(C)c2cnc(Nc3ccc(N4CCNCC4)cn3)nc2n(C2CCCC2)c1=O + CC(Nc1ccc2c(c1)OCCn1cc(N3C(=O)OCC3C(F)F)nc1-2)C(N)=O ; assay system 313798-341-R-J2-PDC spheroids, viability; pIC50 reported as < 7.00

Given the compound C[C@@H](NC(=O)c1ncnc(N)c1Cl)c1ncc(C(=O)Nc2cc(C(F)(F)F)c(Cl)cn2)s1 + Cc1nc(NC(=O)N2CCCC2C(N)=O)sc1-c1ccnc(C(C)(C)C(F)(F)F)c1 and test system 313798-341-R-J2-PDC spheroids, viability, the measured pIC50 is < 5.00

Form: item Cn1ncc(Cl)c1-c1cc(C(=O)NC(CN)Cc2cccc(F)c2)sc1Cl (stereo unspecified) + COc1c(OCCCN2CCOCC2)ccc2c3n(c(=NC(=O)c4cnc(N)nc4)nc12)CCN3 ; test system 313798-341-R-J2-PDC spheroids, viability; pIC50: > 7.50

----------
viability, T/C for assorted compounds
Tested on: 313798-341-R-J2-PDC spheroids, viability
EXPERIMENT: Anticancer human tumor 313798-341-R-J2-PDC cell line growth inhibition [PI3K];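 note: spheroids exposed to compounds for seven days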;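 for viability, T/C: 100% = DMSO vehicle control viability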
MEASUREMENT PARAMETERS: second compound 0.00316 µM; first compound 0.316 µM; stronger effect = lower value; spheroids with HUVEC and MSC
Please give a number only; it is taken to be in %.

COMPOUND | UNIT ABBREVIATION | viability, T/C
CC1(C)CCC(Nc2ncc(C(F)(F)F)c(-c3c[nH]c4c(P(C)(C)=O)c(C#N)ccc34)n2)CN1 (stereo unspecified) + COc1c(OCCCN2CCOCC2)ccc2c3n(c(=NC(=O)c4cnc(N)nc4)nc12)CCN3 | % | 39.7

CC(Cn1ccc(-c2ccc(C#N)c(Cl)c2)n1)NC(=O)c1cc(C(C)O)[nH]n1 (stereo unspecified) + CC(Nc1ccc2c(c1)OCCn1cc(N3C(=O)OCC3C(F)F)nc1-2)C(N)=O has a reported viability, T/C of 98.3

Consider Cn1nccc1Nc1nccc(-c2ccn(C(CO)c3ccc(Cl)c(F)c3)c(=O)c2)n1 (stereo unspecified) + CC(Nc1ccc2c(c1)OCCn1cc(N3C(=O)OCC3C(F)F)nc1-2)C(N)=O . Its measured viability, T/C is 90.5

----------
System: 313798-341-R-J2-PDC spheroids, viability
EXPERIMENT: Anticancer human tumor 313798-341-R-J2-PDC cell line growth inhibition [PI3K];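 note: spheroids exposed to compounds for seven days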;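 for viability, T/C: 100% = DMSO vehicle control viability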
MEASUREMENT PARAMETERS: second compound 0.00316 µM; first compound 0.316 µM; stronger effect = lower value; spheroids with HUVEC and MSC
From the text: Combinatorial screen of targeted agents with the PI3K inhibitors inavolisib, alpelisib, duvelisib, and copanlisib in multi-cell type tumor spheroids A high-throughput screen of multi-cell type tumor spheroids was designed to identify active combinations of targeted small molecules and PI3K pathway inhibitors. […] Compounds. […] If the clinical Cmax for an agent had not been determined, the highest concentration tested was 10 microM. […]
Labelling: viability, T/C reported below 80% becomes Met; at or above becomes Not met.

Study these solved cases before continuing.
COMPOUND | CLASS ASSIGNMENT
CC(C)NCC(C(=O)N1CCN(c2ncnc3c2C(C)CC3O)CC1)c1ccc(Cl)cc1 (stereo not drawn) + COc1c(OCCCN2CCOCC2)ccc2c3n(c(=NC(=O)c4cnc(N)nc4)nc12)CCN3 | Not met
Cn1ncc(Cl)c1-c1cc(C(=O)NC(CN)Cc2cccc(F)c2)sc1Cl (stereo not drawn) + COc1c(OCCCN2CCOCC2)ccc2c3n(c(=NC(=O)c4cnc(N)nc4)nc12)CCN3 | Met
CNC(=O)c1ccc(N2C(=S)N(c3ccc(C#N)c(C(F)(F)F)c3)C(=O)C2(C)C)cc1F + COc1c(OCCCN2CCOCC2)ccc2c3n(c(=NC(=O)c4cnc(N)nc4)nc12)CCN3 | Not met
C[C@@H](NC(=O)c1ncnc(N)c1Cl)c1ncc(C(=O)Nc2cc(C(F)(F)F)c(Cl)cn2)s1 + COc1c(OCCCN2CCOCC2)ccc2c3n(c(=NC(=O)c4cnc(N)nc4)nc12)CCN3 | Not met
CC1(C)CCC(Nc2ncc(C(F)(F)F)c(-c3c[nH]c4c(P(C)(C)=O)c(C#N)ccc34)n2)CN1 (stereo not drawn) + CC(Nc1ccc2c(c1)OCCn1cc(N3C(=O)OCC3C(F)F)nc1-2)C(N)=O | Met

Dear colleague, could you confirm whether viability, T/C of C[C@@H](NC(=O)c1ncnc(N)c1Cl)c1ncc(C(=O)Nc2cc(C(F)(F)F)c(Cl)cn2)s1 + CC(Nc1ccc2c(c1)OCCn1cc(N3C(=O)OCC3C(F)F)nc1-2)C(N)=O falls below 80%? Thanks.
Not met

Item CCN1CCN(Cc2ccc(Nc3ncc(F)c(-c4cc(F)c5nc(C)n(C(C)C)c5c4)n3)nc2)CC1 + CC(Nc1ccc2c(c1)OCCn1cc(N3C(=O)OCC3C(F)F)nc1-2)C(N)=O : viability, T/C beneath 80%, strictly?
Not met

Below 80% on viability, T/C? Entry Cn1nccc1Nc1nccc(-c2ccn(C(CO)c3ccc(Cl)c(F)c3)c(=O)c2)n1 (stereo not drawn) + COc1c(OCCCN2CCOCC2)ccc2c3n(c(=NC(=O)c4cnc(N)nc4)nc12)CCN3
Not met
